Assay: partition coefficient (octanol-water) (log P) at 25° C.
Conditions: octanol/water
MEASURED_PARAMETER: logP

Worked set:
Memo: CN1CCCC1=O [N-methylpyrrolidone] , reported logP: -0.5

Memo: CC(O)COc1ccccc1 (centres unmarked) [1-phenoxy-2-propanol] , reported logP: 1.1

Memo: OCC(O)CO [glycerin] , reported logP: -2.2

Memo: CCOCCO [2-ethoxyethanol] , reported logP: -0.2

Memo: CC(O)CO (centres unmarked) [propylene glycol] , reported logP: -1.1

Memo: OCCOCc1ccccc1 [2-benzyloxyethanol] , reported logP: 1.2

P = CCN1CCCC1=O [N-ethylpyrrolidone]
Q = CCCCOCCOCCO [diethylene glycol mono-n-butyl ether]
Enquiry: When P and Q are compared, which has the higher number for logP? Could you answer with the label of the item you picked?
Return: Q
(Q: 0.9, P: -0.2)
